Values were extracted from patent US12201613B2.

- systemTested: SARS-CoV-2 S-protein-ACE2 binding (Homo sapiens, UniProt Q9BYF1, K631R)
- Construct: made in house
- methodNotes: EIS-based biosensing platform (ACE2-Pd-NTFE): modulation of S-protein-ACE2 binding
- Parameters: species or system SARS-CoV-2; human
- runParameters: 4 μg/mL ACEi; baseline 99.5%±11.0% (104.2%±4.8% for ramiprilat)
For each of the compounds below, state its ECmax S-protein (S-protein-ACE2 interaction at maximum S-protein concentration).
Give bare numbers, in %.

compound	systemTested	testResult
C[C@H](N[C@@H](CCc1ccccc1)C(=O)O)C(=O)N1[C@H](C(=O)O)C[C@@H]2CCC[C@@H]21 [ramiprilat]	SARS-CoV-2 S-protein-ACE2 binding (Homo sapiens, UniProt Q9BYF1, K631R)	27.6
CCC[C@H](N[C@@H](C)C(=O)N1[C@H](C(=O)O)C[C@@H]2CCCC[C@@H]21)C(=O)OCC [perindopril]	SARS-CoV-2 S-protein-ACE2 binding (Homo sapiens, UniProt Q9BYF1, K631R)	51.9
CCC[C@H](N[C@@H](C)C(=O)N1[C@H](C(=O)O)C[C@@H]2CCCC[C@@H]21)C(=O)O [perindoprilat]	SARS-CoV-2 S-protein-ACE2 binding (Homo sapiens, UniProt Q9BYF1, K631R)	33.0

Turning to the following compound.
Request: Fill in ECmax S-protein (S-protein-ACE2 interaction at maximum S-protein concentration) for record CCOC(=O)[C@H](CCc1ccccc1)N[C@@H](C)C(=O)N1[C@H](C(=O)O)C[C@@H]2CCC[C@@H]21 [ramipril]
Response: 57.1
